# Tested on: PAF-induced hypotension
# METHOD_DESCRIPTION: Inhibitory action on PAF-induced hypotension in rats
# Type: in vivo, rat (Sprague-Dawley)
# CONDITION_INFO: Rattus norvegicus, iv, 0.01 mg/kg, 4 hr.; read-out: Inhibitory Rate (Lowering of Blood Pressure)
# Experimental: Sprague-Dawley male rats, each weighing about 250 g, were subjected to the experiment. The rats were cannulated on the side of femoral artery for measuring the blood pressure, and on the side of femoral vein for administering the drug. The blood pressure was measured through a pressure transducer and recorded. First, PAF (1 μg/kg) was administered intravenously (i.v.) to examine the extent of lowering of blood pressure. Then, the test samples were administered intravenously or orally. […]
RECORDED_METRIC: inhibition in vivo at 0.01 mg/kg (%)

# MOLECULE, RESULT
measured = [
    ("CCC[n+]1cc(Cl)cc(C(=O)N(CCC(=O)NCCOC(=O)N2CCc3ccccc3C2)c2ccccc2)c1 [Production Example 88]", 40),
    ("CCC[n+]1cc(Br)cc(C(=O)N(CCC(=O)NCCOC(=O)N2CCc3ccccc3C2)c2ccccc2)c1 [Production Example 87]", 41),
    ("CCC[n+]1cc(Br)cc(C(=O)N(CCOC(=O)NCCOC(=O)Nc2cccc3ccccc23)c2ccccc2)c1 [Production Example 10]", 53),
    ("CCC[n+]1cc(Br)cc(C(=O)N(CCOC(=O)NCCOc2cccc3ccccc23)c2ccccc2)c1 [Production Example 7]", 45),
    ("CCC[n+]1cc(Br)cc(C(=O)N(CCOC(=O)NCCOC(=O)Nc2cccc3ccccc23)c2cccc(Cl)c2)c1 [Production Example 44]", 47),
    ("CCC[n+]1cc(Br)cc(C(=O)N(CCC(=O)NCCOC(=O)Nc2cccc3ccccc23)c2ccccc2)c1 [Production Example 90]", 17),
]

---

# Test system: PAF-induced hypotension
# METHOD_DESCRIPTION: Inhibitory action on PAF-induced hypotension in rats
# Assay type: in vivo, rat (Sprague-Dawley)
# CONDITION_INFO: Rattus norvegicus, iv, 0.03 mg/kg, 4 hr.; read-out: Inhibitory Rate (Lowering of Blood Pressure)
Reported values of inhibition in vivo at 0.03 mg/kg for individual entries
RECORDED_METRIC: inhibition in vivo at 0.03 mg/kg (%)

# MOL, RECORDED_METRIC, RESULT
data = [
    ("CCC[n+]1cc(Br)cc(C(=O)N(CCC(=O)NCCOC(=O)Nc2cccc3ccccc23)c2ccccc2)c1", "inhibition in vivo at 0.03 mg/kg", 51),
    ("CCC[n+]1cc(Br)cc(C(=O)N(CCOC(=O)NCCOC(=O)N2CCc3ccccc3C2)c2ccccc2)c1", "inhibition in vivo at 0.03 mg/kg", 62),
    ("CCC[n+]1cc(Br)cc(C(=O)N(CCOC(=O)NCCOC(=O)Nc2cccc3ccccc23)c2cccc(OC)c2)c1", "inhibition in vivo at 0.03 mg/kg", 70),
    ("CCC[n+]1cc(Br)cc(C(=O)N(CCOC(=O)NCCOC(=O)Nc2cccc3ccccc23)c2cccc(Cl)c2)c1", "inhibition in vivo at 0.03 mg/kg", 64),
    ("CCC[n+]1cc(Br)cc(C(=O)N(CCOC(=O)NCCOc2cccc3ccccc23)c2ccccc2)c1", "inhibition in vivo at 0.03 mg/kg", 68),
    ("CCC[n+]1cc(Br)cc(C(=O)N(CCOC(=O)NCCOC(=O)Nc2cccc3ccccc23)c2ccccc2)c1", "inhibition in vivo at 0.03 mg/kg", 65),
]

Origin of measurements: patent US4962113A
